assay: Cytotoxicity against human HepG2 cells measured after 72 hrs by hoechst 33342 staining based imaging assay; assay type: toxicity, cell-based; conditions: read-out: pCC50 (converted)
experimentalEndpoint: CC50 at 72 h

{"columns": ["moleculeSmiles", "CC50 at 72 h"],
 "data": [
  ["CN(C(=O)c1cn(-c2ccc(Cl)cc2)nn1)c1ccc(Cl)cc1", "> 10 µM"],
  ["Cc1ccc(NC(=O)c2ncn(-c3ccc(Cl)cc3)n2)cc1C", "> 10 µM"],
  ["Cc1ccc(-n2cnc(C(=O)N(C)c3cccc(C)c3)n2)cc1", "> 10 µM"]
]}

Now examine the next entry.
QUERY: Data request, read-out CC50 at 72 h, for Cc1nc(-c2ccc(Cl)cc2)sc1C(=O)N(C)c1ccc(Cl)cc1
RESULT: > 10 µM

====

Each entry below lists one item and its recorded CC50 at 72 h value.
assay: Cytotoxicity against human HepG2 cells measured after 72 hrs by hoechst 33342 staining based imaging assay; assay type: toxicity, cell-based; settings: read-out: pCC50 (converted)

Some solved entries appear below for comparison.
{"columns": ["moleculeSmiles", "CC50 at 72 h"],
 "data": [
  ["Cc1ccc(N(C)C(=O)c2ncn(-c3ccc(Cl)cc3)n2)cc1C", "> 10 µM"],
  ["Cc1ccc(-c2ncc(C(=O)N(C)c3ccc(Cl)cc3)s2)cc1", "> 10 µM"],
  ["O=C(c1ccc(Cl)cc1)c1ncc(-c2ccc(Cl)cc2)o1", "> 10 µM"],
  ["O=C(Nc1ccc(-c2cc3ccccc3oc2=O)cc1)c1cccc2ccccc12", "1.15 µM"],
  ["Cc1ccc(-c2ncc(C(=O)N(C)c3ccc(Cl)cc3)[nH]2)cc1", "> 10 µM"]
]}

QUERY: Data request, read-out CC50 at 72 h, for COc1ccc(N(C)C(=O)c2ncn(-c3ccc(C)cc3)n2)cc1
RESULT: > 10 µM

====

assay: Metabolic stability in human liver microsomes assessed as half life
experimentalEndpoint: half-life (min)
The reply should contain only the number, in min.

Some solved entries appear below for comparison.
{"columns": ["moleculeSmiles", "experimentalEndpoint", "val"],
 "data": [
  ["Cc1ccc(N(C)C(=O)c2ncn(-c3ccc(C)cc3)n2)cc1", "half-life", 11.1],
  ["Cc1ccc(N(C)C(=O)c2ncn(-c3ccc(Cl)cc3)n2)cc1", "half-life", 33.8]
]}

Now examine the next entry.
QUERY: Data request, read-out half-life, for Cc1ccc(-c2cncc(C(=O)N(C)c3ccc(Cl)cc3)c2)cc1
RESULT: 6.1
